- Test system: Cytiva hSCCMs
- EXPERIMENTAL_PROTOCOL: Whole-cell current-clamp recording of spontaneous action potentials (APD90)
- Format: cell-based, human
- COND: drug at EC20 concentration, 3 min; Fridericia-corrected; blebbistatin-immobilized cells
MEASURED_METRIC: Effect on APD90 (action potential duration)

Sample records with Effect on APD90 (action potential duration):
CSc1ccc2c(c1)N(CCC1CCCCN1C)c1ccccc1S2 (centres unmarked) | increased APD90
COc1cc(N)c(Cl)cc1C(=O)NC1CCN(CCCOc2ccc(F)cc2)CC1OC (centres unmarked) [Cisapride, cisapride] | increased APD90
O=C(NCC1CCCCN1)c1cc(OCC(F)(F)F)ccc1OCC(F)(F)F (centres unmarked) [Flecainide, flecainide] | no effect
COc1ccc(CCN2CCC(Nc3nc4ccccc4n3Cc3ccc(F)cc3)CC2)cc1 | increased APD90

The molecule listed as Cc1onc(-c2ccccc2)c1-c1ccc(S(N)(=O)=O)cc1 has a reported Effect on APD90 (action potential duration) of no effect

All values here come from paper PMC4361473.
